Tested on: MDA-MB-231 breast
Test: NCI tumour cell line growth inhibition, 48 h
readout_label: TGI (µM)
# value in µM; strip the unit string

smiles_text=O=C(c1ccc2ccccc2c1)c1c(C(F)(F)F)n([O-])c2ccc(C(F)(F)F)cc2[n+]1=O recorded_value=2.95

Qu. So what's the measured TGI for this one? CC1=C2C(=C[C@@](C)(CO)[C@@H]2OC(=O)N(C)CCN(C)C(=O)OC(C)(C)C)C(=O)[C@](C)(O)C12CC2
Ans. 39.3

###

Test system: OVCAR-5 ovarian
Test: NCI tumour cell line growth inhibition, 48 h
readout_label: TGI

compound="NC(=O)CNC(=O)[C@@H]1CC(OCCC(=O)O)CN1C(=O)C1CCCN1C(=O)OCc1ccccc1 (stereo partly drawn)" readout_label=TGI recorded_value="> 100 µM"
compound=CCOC(=O)NC(=O)c1cn(CCN2CCN(C(=O)NCCCCCCNC(=O)N3CCN(CCn4cc(C(=O)NC(=O)OCC)c(=O)[nH]c4=O)CC3)CC2)c(=O)[nH]c1=O readout_label=TGI recorded_value="> 100 µM"
compound=CCN(CCCOc1ccccc1)CCN(CC)CCCOc1ccccc1 readout_label=TGI recorded_value="38.9 µM"
compound=O=C(NCC1CC1)c1ccc(-c2cccc(C(=O)NC3CC3)c2)cc1 readout_label=TGI recorded_value="> 25 µM"
compound=COc1ccc2c(c1)C(=O)/C(=C/c1cccc(OCC(=O)c3ccccc3)c1)CC2 readout_label=TGI recorded_value="> 100 µM"

Qu. API: value(readout=TGI, system=OVCAR-5 ovarian) for record O=S(=O)(/N=c1\scc(-c2ccccc2)n1-c1ccccc1)c1ccc(N2N=C3c4ccccc4CC3C2c2ccc(Cl)cc2)cc1 (stereo not drawn)
Ans. > 100 µM

Qu. Given the entry O=C(NCCCOC(=O)CCCCCCCCC(=O)OCCCNC(=O)NC(=O)c1c[nH]c(=O)[nH]c1=O)NC(=O)c1c[nH]c(=O)[nH]c1=O , what TGI was observed with OVCAR-5 ovarian?
Ans. > 100 µM

Qu. # query: TGI | item CN(C)CCNc1ccc2c(=O)n(CCN(C)C)c(=O)n3c4ccc(O)cc4c(=O)c1c23 | system: OVCAR-5 ovarian
Ans. 2.34 µM

###

System: HCC-2998 colon
Test: NCI tumour cell line growth inhibition, 48 h
readout_label: TGI

compound=O=[N+]([O-])c1ccccc1OCCOc1ccccc1[N+](=O)[O-] recorded_value="> 100 µM"

Field: next compound
Qu. I'm curious: which TGI was measured for COc1ccc(C2=Nn3c(nnc3-c3cc(Cl)cc(Cl)c3Cl)SC2)cc1 tested on HCC-2998 colon?
Ans. 5.41 µM

###

Recorded measurements of TGI, one per entry
Tested on: MCF7 breast
Assay: NCI tumour cell line growth inhibition, 48 h

Qu. Using the record for O=c1[nH]cc(NCCCl)c(=O)[nH]1 , report its TGI.
Ans. > 100 µM

Qu. Given the entry Cc1ccc2cnc(N)c(C#Cc3cc(C(=O)Nc4ccc(CN5CCN(C)CC5)c(C(F)(F)F)c4)cnc3C)c2c1 , report its measured TGI.
Ans. 1.49 µM

Qu. Looking for the measured TGI of S=C1c2ccc(Cl)cc2-n2cnnc2C2CSCN12 (configuration not stated) , can you help?
Ans. > 100 µM

Qu. Data request, read-out TGI, for C=CCn1c(=O)c(C)cn(COCCO)c1=O
Ans. > 100 µM

Qu. Which TGI reading was recorded for the molecule CC(C)(C)c1ccc(OCCOc2ccc(C(C)(C)C)cc2N)c(N)c1 ?
Ans. > 100 µM
